# study.target: T1, human CD3e (T-cell surface glycoprotein CD3 epsilon chain) (human, UniProt P07766 23-207)
# T1 construct: Target of the anti-hCD3e antibodies on human PBMC, Jurkat cells and cells expressing human CD3e; on T cells it is part of the CD3/TCR complex; also called hCD3e; CD3e on human PBMC
# test.protocol: flow cytometry, human PBMC, antibody 1 ug/mL, anti-human IgG Fc-Alexa Fluor647 (1:500), anti-hTcRβ-PerCP (1:30)
endpoint: upper left quadrant, percent of cells AF647+ / hTcRβ-PerCP-

[
  {
    "binder": "10A4-H4K2-IgG1-LALA (antibody, V domains shown, Humanized; human IgG1 with LALA mutations; also called H4K2 (humanized 10A4)) VH: QVQLQQSGAEVKKPGASVRISCKASGYTFTSYYIHWVRQRPGQGLEFIGWIYPGNVNAKYNEKFKGRATLTTDKSASTAYMELSSLRSEDTAVYFCAIKGGNYDWGQGTLVTVSS VL: DVVMTQSPLSLPVTLGQPASISCQSSQSLLDSDGKTYLNWLQQRPGQSPRRLIYLVSKLGSGVPDRFSGSGSGTDFTLKISRVEAEDVGVYYCWQGTHFPRTFGGGTKLEIK",
    "readout.value": "15%"
  }
]
